Entry source: paper PMC4336329

I'd be grateful if you could share measured hERG current change (%, negative = inhibition) at 10uM for these entries.
System: human ether-à-go-go-related gene (hERG) potassium channel (human, UniProt Q12809);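 note: peak tail current of the secondary pulse compared with the same well before compound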
Sequence (Q12809 whole entry, looked up): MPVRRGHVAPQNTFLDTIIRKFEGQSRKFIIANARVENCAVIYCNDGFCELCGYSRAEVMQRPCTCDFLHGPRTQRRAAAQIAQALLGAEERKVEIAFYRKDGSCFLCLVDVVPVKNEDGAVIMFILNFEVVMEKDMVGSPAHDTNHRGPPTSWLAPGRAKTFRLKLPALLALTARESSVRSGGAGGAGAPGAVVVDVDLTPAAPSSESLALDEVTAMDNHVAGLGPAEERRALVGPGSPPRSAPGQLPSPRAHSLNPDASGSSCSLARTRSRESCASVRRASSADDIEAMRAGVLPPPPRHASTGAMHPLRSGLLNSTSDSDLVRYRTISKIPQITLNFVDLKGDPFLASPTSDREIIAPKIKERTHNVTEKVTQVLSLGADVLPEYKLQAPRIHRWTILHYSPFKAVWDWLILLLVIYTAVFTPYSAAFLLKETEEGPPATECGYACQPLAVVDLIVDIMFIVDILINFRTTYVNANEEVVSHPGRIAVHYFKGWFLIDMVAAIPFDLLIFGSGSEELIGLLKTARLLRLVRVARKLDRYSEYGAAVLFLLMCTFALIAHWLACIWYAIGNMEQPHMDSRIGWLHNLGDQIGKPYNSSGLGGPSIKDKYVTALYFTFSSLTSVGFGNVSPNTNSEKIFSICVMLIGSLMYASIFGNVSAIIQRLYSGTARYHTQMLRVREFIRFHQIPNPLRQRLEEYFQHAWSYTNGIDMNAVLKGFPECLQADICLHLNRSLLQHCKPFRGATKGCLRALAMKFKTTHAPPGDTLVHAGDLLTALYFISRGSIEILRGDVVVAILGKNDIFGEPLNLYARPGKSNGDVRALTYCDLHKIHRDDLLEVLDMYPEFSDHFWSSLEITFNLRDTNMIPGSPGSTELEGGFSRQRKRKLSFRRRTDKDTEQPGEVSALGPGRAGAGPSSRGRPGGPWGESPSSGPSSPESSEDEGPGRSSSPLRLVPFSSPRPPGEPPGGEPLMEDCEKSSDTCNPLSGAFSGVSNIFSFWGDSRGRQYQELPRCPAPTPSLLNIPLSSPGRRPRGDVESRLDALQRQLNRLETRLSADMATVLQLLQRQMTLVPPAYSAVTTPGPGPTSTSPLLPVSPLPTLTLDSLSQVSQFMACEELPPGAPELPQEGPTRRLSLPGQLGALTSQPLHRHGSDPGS
Assay protocol: primary screen, population patch clamp on CHO cells stably expressing hERG; higher = less effect of the substance
Hit rate of the full screen: of about 310,000 compounds, about 14,000 (4.5%) showed an effect of 50% or more. Effects have a minus sign here. This is one part of a sample in which strong results are shown more often than they occur.
Write the number in % without appending the unit.

Short answer please: hERG current change (%, negative = inhibition) at 10uM, human ether-à-go-go-related gene (hERG) potassium channel (human, UniProt Q12809), entry CCCn1c(-c2cccc(F)c2)nc2c1c(=O)[nH]c(=O)n2Cc1ccccc1 17.5

Quick check: hERG current change (%, negative = inhibition) at 10uM on human ether-à-go-go-related gene (hERG) potassium channel (human, UniProt Q12809), item COCc1cc(=O)[nH]c(Nc2nc3ccc(C)cc3o2)n1 ? -10.3

So what hERG current change (%, negative = inhibition) at 10uM did Cc1ccc(S(=O)(=O)N(Cc2cccnc2)Cc2cc3ccccc3[nH]c2=O)cc1 get with human ether-à-go-go-related gene (hERG) potassium channel (human, UniProt Q12809)? -19.5

Field: hERG current change (%, negative = inhibition) at 10uM (human ether-à-go-go-related gene (hERG) potassium channel (human, UniProt Q12809)). Entry: Cc1ccc(S(=O)(=O)N(Cc2cc3ccccc3[nH]c2=O)CC2CCCO2)cc1 (stereo not shown) 10.5

Lab note: need hERG current change (%, negative = inhibition) at 10uM with human ether-à-go-go-related gene (hERG) potassium channel (human, UniProt Q12809) for entry O=C(NC(=S)NCCc1ccccn1)c1ccco1 , please look it up. 17.4

# returns recorded hERG current change (%, negative = inhibition) at 10uM (system: human ether-à-go-go-related gene (hERG) potassium channel (human, UniProt Q12809)) for O=c1[nH]c2ccccc2cc1CN(Cc1cccnc1)S(=O)(=O)c1ccc(Cl)cc1 -56.2

Item Clc1ccc(-c2nnc3n2CCCS3)cc1 with human ether-à-go-go-related gene (hERG) potassium channel (human, UniProt Q12809) - hERG current change (%, negative = inhibition) at 10uM? 6.34

Lookup: hERG current change (%, negative = inhibition) at 10uM / human ether-à-go-go-related gene (hERG) potassium channel (human, UniProt Q12809) / O=C(NCc1ccccc1)c1ccc(C2SCC(=O)N2Cc2ccccc2)cc1 (stereo not shown) -12.6

Which hERG current change (%, negative = inhibition) at 10uM is reported with human ether-à-go-go-related gene (hERG) potassium channel (human, UniProt Q12809) for this entry: O=c1[nH]c2ccccc2cc1CN(CC1CCCO1)S(=O)(=O)c1ccccc1 (stereo not shown) ? -10.3

Hello, I am looking for reported hERG current change (%, negative = inhibition) at 10uM with human ether-à-go-go-related gene (hERG) potassium channel (human, UniProt Q12809) for O=c1[nH]c2ccccc2cc1CN(CC1CCCO1)S(=O)(=O)c1ccc(Cl)cc1 (stereo not shown) . Could you help? -75.1

* * *

Assign hERG current change (%, negative = inhibition) at 10uM to each entry below.
System: human ether-à-go-go-related gene (hERG) potassium channel (human);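 note: peak tail current of the secondary pulse compared with the same well before compound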
Assay protocol: primary screen, population patch clamp on CHO cells stably expressing hERG; higher = less effect of the substance
Screen size: about 310,000 compounds; about 14,000 (4.5%) showed an effect of 50% or more. Effects have a minus sign here. Many of the other results were omitted from the sample, so strong results are more common in it than they were.
Field: numeric (%). Do not append units.

Give its hERG current change (%, negative = inhibition) at 10uM value. Item: CN(CCOc1ccccc1)C(=O)c1ccc(Cl)c(S(=O)(=O)N2CCCCC2)c1 -67.4

Look up hERG current change (%, negative = inhibition) at 10uM for this compound: Cc1ccc(C(=O)N(C)CCOc2ccccc2)cc1S(=O)(=O)N1CCCCC1 -51.4

Field request: hERG current change (%, negative = inhibition) at 10uM | item: Cl.N=c1sccn1CC(=O)NCCc1ccc(Cl)cc1 -26.3

// hERG current change (%, negative = inhibition) at 10uM lookup, key: CN(CCOc1ccccc1)C(=O)c1cc([N+](=O)[O-])cc([N+](=O)[O-])c1 -56.9

GET /values?readout=hERG current change (%, negative = inhibition) at 10uM&item= Cc1ccc(NC(=O)CN2CCCCCC2)cc1[N+](=O)[O-] 23.1

Could you share which hERG current change (%, negative = inhibition) at 10uM value was measured for Cc1ccc(C(=O)N(C)CCOc2ccccc2)cc1S(=O)(=O)N1CCOCC1 ? -15.6

Entry CN(CCOc1ccccc1)C(=O)c1ccc(N2CCCC2)c([N+](=O)[O-])c1 : reported hERG current change (%, negative = inhibition) at 10uM = ? -27.5

GET /values?readout=hERG current change (%, negative = inhibition) at 10uM&item= COCCNC(=O)CN1C(=O)COc2ccc(S(=O)(=O)N3CCCCCC3)cc21 20.3

Look at this compound and give its reported hERG current change (%, negative = inhibition) at 10uM. O=C(NCCOc1ccccc1)c1cc(C(=O)NCCOc2ccccc2)cc([N+](=O)[O-])c1 -15.2
